- SUBJECT OF TEST: T1, human GLP-1 receptor (human, UniProt P43220 24-463)
- T1 construct: whole, on cells; also called the receptor; hGLP-1
- ASSAY NOTES: SPA, displacement of 125I-GLP-1(7-36)NH2, BHK membranes, 0.001% HSA
*1 amine or outer side, *2 acyl side, *3 side chain or, on linkers, in order; H or OH if unused. Where no end group is shown, it is not given here. Side-chain parts run from the residue outwards. The star is where a group is joined. Decanoyl(10-(4-HOOC-PhO)) = O=C(O)c1ccc(OCCCCCCCCCC(=O)*)cc1; γGlu = O=C(O)[C@H](CCC(=O)[*:2])N[*:1]; AEEA = NCCOCCOCC(=O)O
TEST READOUT: IC50
Please report the result as a number followed by the unit.

Query string: Quick one: IC50 for HAEGTFTSDVSSYLEGQAAK([AEEA-AEEA-γGlu-Decanoyl(10-(4-HOOC-PhO))])EFIAWLVRGRK([AEEA-AEEA-γGlu-Decanoyl(10-(4-HOOC-PhO))])E [Comparative compound of Example 4a: Compound of Example 46, Chem. 65, in WO 2011/080103] ?
Result string: 2.77 nM

Query string: Input HAEGTFTSDVSK([AEEA-AEEA-γGlu-Decanoyl(10-(4-HOOC-PhO))])YLEEQAAK([AEEA-AEEA-γGlu-Decanoyl(10-(4-HOOC-PhO))])EFIAWLVQGRG [Comparative compound of Example 5a: Compound of Example 38, Chem. 57, in WO 2012/062803]
Result string: 5.8 nM
